- target-of-assay: T1, ARHGAP21, Q5T5U3
- T1 sequence (Q5T5U3 45-169, limits assumed, looked up): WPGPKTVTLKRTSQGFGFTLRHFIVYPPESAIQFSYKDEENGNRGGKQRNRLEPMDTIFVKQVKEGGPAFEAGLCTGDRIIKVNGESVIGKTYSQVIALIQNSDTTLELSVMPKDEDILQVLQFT
- protocol-text: holdup assay
- Set-up: key: below the threshold = too weak to quantify, mostly under pKd 3.1 to 4
- measurement-context: plain residues with an end cap or a label only (N-terminal biotin on a linker: ado-ado)
reported-property: pKd

Here are 5 binders together with their reported answers.
MHIQEKGFHV [EPHA6, Q9UF33]    below the threshold
AQRARSPSDV [GPR12, P47775]    below the threshold
NIAESLESLV [PTPRZ1, P23471]    below the threshold
TGLWKHETTV [ADGRA3, Q8IWK6]    3.92
PSVGSKKTVL [REELD1, A0A1B0GV85]    3.93

# binder QSYPSKHDYV [CLDN18, P56856] ; its pKd = 3.99

The binder identified as NTLNRKTTPV [CACNG8, Q8WXS5] registered its pKd at 3.86

# pKd of LPAVCYDIDI [PTTG2, Q9NZH5] = 4.02

Measured pKd, AEASVACSLC [PTGIR, P43119] : below the threshold
